assay: PAMPA with synthetic phospholipid membrane, octyl chain (C8); type: in vitro ADME; conditions: PAMPA, pH 7.4, C8 membrane, incubation time 16 h, pH 7.4 donor and acceptor, 25°C; read-out: P e
Structures can show the parent of a compound that is named as a salt.
OBSERVATION_TYPE: Papp at 16 h (×10⁻⁶ cm/s)

[[record]]
molecule = "CC1(C)S[C@@H]2[C@H](NC(=O)[C@H](N)c3ccc(O)cc3)C(=O)N2[C@H]1C(=O)O [Amoxicillin]"
quantitative_result = 4.6

[[record]]
molecule = "CCn1cc(C(=O)O)c(=O)c2cc(F)c(N3CCNCC3)cc21 [Norfloxacin]"
quantitative_result = 0.9

[[record]]
molecule = "CNC(=C[N+](=O)[O-])NCCSCc1ccc(CN(C)C)o1 [Ranitidine]"
quantitative_result = 1.2

[[record]]
molecule = "COCCc1ccc(OCC(O)CNC(C)C)cc1 (centres unmarked) [Metoprolol Tartrate]"
quantitative_result = 9.2

[[record]]
molecule = "CC(C)Cc1ccc(C(C)C(=O)O)cc1 (centres unmarked) [Ibuprofen]"
quantitative_result = 13.9


###

assay: PAMPA with synthetic phospholipid membrane, lauryl chain (C12); assay type: in vitro ADME; conditions: C12, donor pH 4.6, acceptor pH 7.4, 16 h
Where a name gives a salt, the structure may show the parent alone.
OBSERVATION_TYPE: P e

[[record]]
molecule = "CN(C)C(=N)N=C(N)N [Metformin Hydrochloride]"
result = "1.6 ×10^–7 cm/s"

[[record]]
molecule = "CC1(C)S[C@@H]2[C@H](NC(=O)[C@H](N)c3ccc(O)cc3)C(=O)N2[C@H]1C(=O)O"
result = "1.9 ×10^–7 cm/s"

[[record]]
molecule = "CNC(=C[N+](=O)[O-])NCCSCc1ccc(CN(C)C)o1"
result = "1.6 ×10^–7 cm/s"

[[record]]
molecule = "NC(N)=Nc1nc(CSCCC(N)=NS(N)(=O)=O)cs1"
result = "1.2 ×10^–6 cm/s"

[[record]]
molecule = "COCCc1ccc(OCC(O)CNC(C)C)cc1 (stereo not drawn) [Metoprolol Tartrate]"
result = "1.6 ×10^–5 cm/s"

[[record]]
molecule = "CN/C(=N/CCSCc1nc[nH]c1C)NC#N"
result = "1.8 ×10^–6 cm/s"


###

assay: PAMPA with synthetic phospholipid membrane, decyl chain (C10); format: in vitro ADME; conditions: C10, donor pH 9.32, acceptor pH 7.4, 16 h
Where a name gives a salt, the structure may show the parent alone.
Documented P e across a set of molecules
OBSERVATION_TYPE: P e

[[record]]
molecule = "CC1(C)S[C@@H]2[C@H](NC(=O)[C@H](N)c3ccc(O)cc3)C(=O)N2[C@H]1C(=O)O [Amoxicillin]"
result = "2.2 ×10^–7 cm/s"

[[record]]
molecule = "CCn1cc(C(=O)O)c(=O)c2cc(F)c(N3CCNCC3)cc21 [Norfloxacin]"
result = "2.3 ×10^–6 cm/s"

[[record]]
molecule = "CNC(=C[N+](=O)[O-])NCCSCc1ccc(CN(C)C)o1 [Ranitidine]"
result = "5.5 ×10^–7 cm/s"

[[record]]
molecule = "O=C(N[C@H](CO)[C@H](O)c1ccc([N+](=O)[O-])cc1)C(Cl)Cl [Chloroamphenicol]"
result = "0.5 ×10^–6 cm/s"

[[record]]
molecule = "CN(C)C(=N)N=C(N)N [Metformin Hydrochloride]"
result = "7.2 ×10^–7 cm/s"

[[record]]
molecule = "CC(C)Cc1ccc(C(C)C(=O)O)cc1 (stereo not shown) [Ibuprofen]"
result = "2.6 ×10^–6 cm/s"

[[record]]
molecule = "COCCc1ccc(OCC(O)CNC(C)C)cc1 (stereo not shown) [Metoprolol Tartrate]"
result = "9.3 ×10^–5 cm/s"


Data provenance is paper PMC4315410.
